test system: DU-145 prostate; experiment: NCI tumour cell line growth inhibition, 48 h; in the data active means GI50 below about 0.43 µM; inactive means the rest
Outcomes: active, inactive

compound	group
COc1cc(/C=C/C(=O)c2cc(OC)c(OC)c(OC)c2)cc(OC)c1OC	inactive
CCCCc1nc2cc(/C=C/C(=O)NO)ccc2n1CCN(CC)CC	active
COC(=O)c1cc2c(cc1Cl)SC(N(N(C)C)S(=O)(=O)c1ccc(Cl)cc1)=NS2(=O)=O	inactive
CN(C)CCCC(=O)Nc1ccc(Cn2nnc3c2C(=O)c2nnn(Cc4ccc(NC(=O)CCCN(C)C)cc4)c2C3=O)cc1	inactive
CC(C)(C)n1cc(-c2ccnc(NCCNS(=O)(=O)c3cccc4ccccc34)c2)c(-c2cccc(F)c2)n1	inactive
COc1cc2c3c(n(CCCNCCN4CCOCC4)c(=O)c2cc1OC)-c1cc2c(cc1C3=O)OCO2	inactive
C[C@@]12CCC[C@@](C)(C(=O)O)C1CC[C@@]13CC(=O)[C@@](CO)(CCC12)C3 (some centres undefined)	inactive
COc1ccc(-c2nn(-c3cccc(NC(=O)Nc4cccc(C(F)(F)F)c4)c3)cc2-c2ccncc2)cc1Cl	inactive
CC(C)(C)c1nnc2n(c1=O)N=CC(c1ccc(Br)cc1)S2 (centres undefined)	inactive

* * *

We begin with a simple list: items and their reported TGI.
system: HCT-15 colon; experiment: NCI tumour cell line growth inhibition, 48 h
reportedMetric: TGI

molecule	reportedMetric	measuredResult
CC(C)(C)OC(=O)N1C/C=C\C(=O)C2(OCCO2)c2ccccc21	TGI	> 100 µM
COc1cc(C2c3cc4c(cc3OC(N3CCOCC3)C2C)OCO4)cc(OC)c1OC(C)=O (configuration not stated)	TGI	> 100 µM
CC1=C(c2cc(C(=O)Nc3cccc(C(F)(F)F)c3)nc(NC#N)n2)Sc2ccccc2N1	TGI	> 100 µM
CSc1nc(=O)c(C#N)c(-c2ccccc2)n1C1OC(COC(C)=O)C(OC(C)=O)C(OC(C)=O)C1OC(C)=O (configuration not stated)	TGI	> 100 µM
C1=C[C@]2(CCC13OCCO3)COc1ccccc12	TGI	> 100 µM
N#Cc1nc(Nc2ccc([N+](=O)[O-])cc2)sc1N	TGI	> 100 µM
COC(=O)C(=O)C(C#N)c1ccc(Cl)c(Cl)c1 (configuration not stated)	TGI	> 100 µM
CCOC(=O)/C=C1/Nc2cc(F)c(F)cc2NC1=O	TGI	> 100 µM
CC(C)CC(=O)CC(O)C(Cl)(Cl)Cl (configuration not stated)	TGI	> 100 µM
Cc1ccc([Se][Se]c2ccc(C)cc2)cc1	TGI	> 100 µM
O=C(O/N=C1/CCCC/C1=C\c1ccccc1)c1ccc(Cl)cc1	TGI	> 100 µM
CC(C)c1ccc(O)c(=O)cc1	TGI	> 100 µM
O=C(/C=C/c1ccc(Cl)cc1)c1ccncc1	TGI	> 100 µM
O=C1CC(Cl)c2c(Cl)sc(Cl)c21 (configuration not stated)	TGI	5.07 µM
O=C(CCC(=O)OCC1OC(O)(CC2OC(CO)C(O)C(O)C2O)C(O)C1O)OCc1ccccc1 (configuration not stated)	TGI	> 100 µM
COc1cc(C)cc(OC)c1/C=C/C(=O)O	TGI	> 100 µM
CC12CCC(C1)C(C)(C)C2OC(=O)c1ccccc1C(=O)O (configuration not stated)	TGI	> 100 µM
CN(Cc1ccccc1)C1(N(C)Cc2ccccc2)CC1	TGI	> 100 µM
COc1cc(-c2coc3c(OC)c(OC4OC(COC5OC(C)C(O)C(O)C5O)C(O)C(O)C4O)c(OC)c(O)c3c2=O)cc(C)c1O (configuration not stated)	TGI	40.9 µM
COc1cccc(/C=N/n2c(Cc3ccc(Cl)cc3)n[nH]c2=O)c1	TGI	> 100 µM
O=C1CC(c2c[nH]c3ccccc23)C(=O)N1c1ccccc1 (configuration not stated)	TGI	> 100 µM
Cc1cccc(N2C(=O)C(=O)C(c3nc4ccccc4s3)C(=O)C2=O)c1C	TGI	> 100 µM
CN1CCN(c2cc(Nc3cc(C4CC4)[nH]n3)nc(Nc3ccc(CC(=O)NCc4cccc(F)c4)cc3)n2)CC1	TGI	14.5 µM
Cc1ccsc1/C=N/Nc1ccccn1	TGI	> 100 µM
Cc1nc2ccccc2cc1C[N+]12CN3CN(CN(C3)C1)C2	TGI	47 µM
O=C(O)C(CO)NC(=O)C1C(C(=O)O)C(c2ccccc2[N+](=O)[O-])C=C(c2ccco2)N1c1ccncc1 (configuration not stated)	TGI	4.39 µM
Cc1cnc2[nH]c(-c3cccc(Cl)c3)cc(=O)c2c1	TGI	> 100 µM
CCCCCCCCCC(=O)N[C@H]1CCc2cc(OC)c(OC)c(OC)c2-c2ccc(SC)c(=O)cc21	TGI	0.0901 µM
O=[N+]([O-])c1ccc(-[n+]2ccc3ccccc3c2)c([N+](=O)[O-])c1	TGI	3.65 µM
Clc1ccc(Nc2nc3ccccc3c3occc23)cc1	TGI	34.4 µM
O=C(c1ccccc1)n1[nH]c(=O)n(-c2ccc(Cl)cc2)c1=O	TGI	> 100 µM
O=C1C=C(Nc2nc(C(=O)O)cc(=O)[nH]2)c2ccccc2C1=O	TGI	> 100 µM
COC(=O)C(N)CCCC(N)C(=O)NC(C)C(=O)NC(CCC(=O)NCCCNc1ccc([N+](=O)[O-])c2[nH]c3ccccc3c(=O)c12)C(N)=O (configuration not stated)	TGI	15 µM
CC(C)C(/C=C/c1ccccc1)=N\NC(=S)NN	TGI	> 100 µM
CC(C)(CN1CCCCC1)C(=O)/C=C/c1c(Cl)cccc1Cl	TGI	2.28 µM
CCOC(=O)CN(Cc1ccccc1)Cc1c(C(=O)c2ccccc2)c2ccccc2n1C(=O)c1ccccc1	TGI	> 100 µM
Cc1nc2sccn2c1C(=O)OCCOCCOCCOCCOC(=O)c1c(C)nc2sccn12	TGI	> 100 µM

The values you see were collected from PubChem BioAssay (NCI).
